EXPERIMENT DESCRIPTION: Cytotoxicity against MDCK cells assessed as reduction in cell viability by CellTiter-Glo assay
Type: cell-based, Canis lupus familiaris
EXPERIMENTAL CONTEXT: dog
Reported CC50 is given for each of the following compounds.

Observe how each entry below is paired with its result.
COMPOUND: CC1(C)CC[C@]2(C(=O)NCCCc3cn(CC(CO)(Cn4cc(CCCNC(=O)[C@]56CCC(C)(C)C[C@H]5C5=CC[C@@H]7[C@@]8(C)CC[C@H](O)C(C)(C)[C@@H]8CC[C@@]7(C)[C@]5(C)CC6)nn4)Cn4cc(CCCNC(=O)[C@]56CCC(C)(C)C[C@H]5C5=CC[C@@H]7[C@@]8(C)CC[C@H](O)C(C)(C)[C@@H]8CC[C@@]7(C)[C@]5(C)CC6)nn4)nn3)CC[C@]3(C)C(=CC[C@@H]4[C@@]5(C)CC[C@H](O)C(C)(C)[C@@H]5CC[C@]43C)[C@@H]2C1
CC50: > 100 µM
//
COMPOUND: CC1(C)CC[C@]2(C(=O)NCCCCc3cn(CC(CO)(Cn4cc(CCCCNC(=O)[C@]56CCC(C)(C)C[C@H]5C5=CC[C@@H]7[C@@]8(C)CC[C@H](O)C(C)(C)[C@@H]8CC[C@@]7(C)[C@]5(C)CC6)nn4)Cn4cc(CCCCNC(=O)[C@]56CCC(C)(C)C[C@H]5C5=CC[C@@H]7[C@@]8(C)CC[C@H](O)C(C)(C)[C@@H]8CC[C@@]7(C)[C@]5(C)CC6)nn4)nn3)CC[C@]3(C)C(=CC[C@@H]4[C@@]5(C)CC[C@H](O)C(C)(C)[C@@H]5CC[C@]43C)[C@@H]2C1
CC50: > 100 µM
//
COMPOUND: CC1(C)CC[C@]2(C(=O)NCCCc3cn(Cc4cc(Cn5cc(CCCNC(=O)[C@]67CCC(C)(C)C[C@H]6C6=CC[C@@H]8[C@@]9(C)CC[C@H](O)C(C)(C)[C@@H]9CC[C@@]8(C)[C@]6(C)CC7)nn5)cc(Cn5cc(CCCNC(=O)[C@]67CCC(C)(C)C[C@H]6C6=CC[C@@H]8[C@@]9(C)CC[C@H](O)C(C)(C)[C@@H]9CC[C@@]8(C)[C@]6(C)CC7)nn5)c4)nn3)CC[C@]3(C)C(=CC[C@@H]4[C@@]5(C)CC[C@H](O)C(C)(C)[C@@H]5CC[C@]43C)[C@@H]2C1
CC50: > 100 µM
//
COMPOUND: CC1(C)CC[C@]2(C(=O)NCc3cn(CC(CO)(Cn4cc(CNC(=O)[C@]56CCC(C)(C)C[C@H]5C5=CC[C@@H]7[C@@]8(C)CC[C@H](O)C(C)(C)[C@@H]8CC[C@@]7(C)[C@]5(C)CC6)nn4)Cn4cc(CNC(=O)[C@]56CCC(C)(C)C[C@H]5C5=CC[C@@H]7[C@@]8(C)CC[C@H](O)C(C)(C)[C@@H]8CC[C@@]7(C)[C@]5(C)CC6)nn4)nn3)CC[C@]3(C)C(=CC[C@@H]4[C@@]5(C)CC[C@H](O)C(C)(C)[C@@H]5CC[C@]43C)[C@@H]2C1
CC50: > 100 µM
//
COMPOUND: CC1(C)CC[C@]2(C(=O)NCCc3cn(Cc4cc(Cn5cc(CCNC(=O)[C@]67CCC(C)(C)C[C@H]6C6=CC[C@@H]8[C@@]9(C)CC[C@H](O)C(C)(C)[C@@H]9CC[C@@]8(C)[C@]6(C)CC7)nn5)cc(Cn5cc(CCNC(=O)[C@]67CCC(C)(C)C[C@H]6C6=CC[C@@H]8[C@@]9(C)CC[C@H](O)C(C)(C)[C@@H]9CC[C@@]8(C)[C@]6(C)CC7)nn5)c4)nn3)CC[C@]3(C)C(=CC[C@@H]4[C@@]5(C)CC[C@H](O)C(C)(C)[C@@H]5CC[C@]43C)[C@@H]2C1
CC50: > 100 µM

Entry CCOC(=O)C1=C[C@@H](OC(CC)CC)[C@H](NC(C)=O)[C@@H](N)C1 [OSELTAMIVIR PHOSPHATE] ; CC50 = > 100 µM

Entry CC1(C)CC[C@]2(C(=O)NCCCCCc3cn(CC(CO)(Cn4cc(CCCCCNC(=O)[C@]56CCC(C)(C)C[C@H]5C5=CC[C@@H]7[C@@]8(C)CC[C@H](O)C(C)(C)[C@@H]8CC[C@@]7(C)[C@]5(C)CC6)nn4)Cn4cc(CCCCCNC(=O)[C@]56CCC(C)(C)C[C@H]5C5=CC[C@@H]7[C@@]8(C)CC[C@H](O)C(C)(C)[C@@H]8CC[C@@]7(C)[C@]5(C)CC6)nn4)nn3)CC[C@]3(C)C(=CC[C@@H]4[C@@]5(C)CC[C@H](O)C(C)(C)[C@@H]5CC[C@]43C)[C@@H]2C1 ; CC50 = > 100 µM

Entry CC1(C)CC[C@]2(C(=O)NCc3cn(Cc4cc(Cn5cc(CNC(=O)[C@]67CCC(C)(C)C[C@H]6C6=CC[C@@H]8[C@@]9(C)CC[C@H](O)C(C)(C)[C@@H]9CC[C@@]8(C)[C@]6(C)CC7)nn5)cc(Cn5cc(CNC(=O)[C@]67CCC(C)(C)C[C@H]6C6=CC[C@@H]8[C@@]9(C)CC[C@H](O)C(C)(C)[C@@H]9CC[C@@]8(C)[C@]6(C)CC7)nn5)c4)nn3)CC[C@]3(C)C(=CC[C@@H]4[C@@]5(C)CC[C@H](O)C(C)(C)[C@@H]5CC[C@]43C)[C@@H]2C1 ; CC50 = > 100 µM

Entry CC1(C)CC[C@]2(C(=O)NCCCCCc3cn(Cc4cc(Cn5cc(CCCCCNC(=O)[C@]67CCC(C)(C)C[C@H]6C6=CC[C@@H]8[C@@]9(C)CC[C@H](O)C(C)(C)[C@@H]9CC[C@@]8(C)[C@]6(C)CC7)nn5)cc(Cn5cc(CCCCCNC(=O)[C@]67CCC(C)(C)C[C@H]6C6=CC[C@@H]8[C@@]9(C)CC[C@H](O)C(C)(C)[C@@H]9CC[C@@]8(C)[C@]6(C)CC7)nn5)c4)nn3)CC[C@]3(C)C(=CC[C@@H]4[C@@]5(C)CC[C@H](O)C(C)(C)[C@@H]5CC[C@]43C)[C@@H]2C1 ; CC50 = > 100 µM

Entry CC1(C)CC[C@]2(C(=O)O)CC[C@]3(C)C(=CC[C@@H]4[C@@]5(C)CC[C@H](O)C(C)(C)[C@@H]5CC[C@]43C)[C@@H]2C1 ; CC50 = > 100 µM
